# protocolSummary: Components of the Cytosolic LPS Sensing Pathway: Gene Identification via Genome-wide siRNA Screen
# runParameters: RAW264.7 macrophages, IL-1a HTRF, actives lie on both sides, screened at 100 nM (by protocol), cells primed 5 h with Pam3CSK4 first
# Description: Non-canonical inflammasome activation by cytosolic LPS is a critical component of the host response to Gram-negative bacterial infection, however we lack a comprehensive understanding of the cellular processes that control this pathway. […] Lipofectamine RNAiMAX Transfection Reagent ([…]; Invitrogen) was added in […] serum-free, antibiotic-free media to plate wells using a Thermo Scientific Matrix WellMate and Microplate Stacker. […] The plates were read on an EnVision plate reader (PerkinElmer). […]
Hit rate of the full screen: of about 53,000 sequences, about 3,700 (7%) were called active.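 How the source made its calls: active means gene knockdowns whose robust z-score for IL-1 alpha signal is at least 2 or at most -2, so actives lie on both sides; inactive means the rest.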 The entries come from a sample that favours actives as a whole.
Mark one answer only. Choices: YES for active, NO for inactive

Worked cases, answers included:
### Prompt Could you kindly confirm the outcome this assay logged for CCUGAUACUAACAAGGAAATT against Afmid ?
### Response NO

### Prompt Tell me the recorded outcome of this test for GGCAAGAAAUUCUUCAGCATT against St8sia3 .
### Response NO

### Prompt // param item: CCGAGUUCGGGUAUCUUGGTT against Grwd1 ; yields the recorded call
### Response NO

### Prompt Could you please tell me the result logged for GGAUACAAUGCAACUGUCCTT against Kif4 in this assay?
### Response NO

Continue with the next sequence.
### Prompt Recorded call for CCCUUGAGUCAUUCUCUAATT against Gsto1 ?
### Response NO
